# credit: PubChem BioAssay (Tox21)

# Target desc: Nuclear receptor subfamily 1 group I member 3 (Homo sapiens)
# Protocol notes: qHTS assay to identify small molecule agonists of the constitutive androstane receptor (CAR) signaling pathway (AID 1224839); note: nearly all actives have a fitted effect of over 15% in size;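 for activation: HepG2 cells stably carrying human CAR and a CYP2B6 luciferase reporter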
# Run parameters: HepG2 hCAR CYP2B6-luciferase, agonist mode, 24 h; series mostly up to 92.4 µM
Inconclusive results are not listed. Activity calls are given as the source filed them. Calls come from the whole dose curve; as a rule, active = well fitted activation curve with a large enough effect in the repeat runs; inconclusive = weak or mixed curves; inactive = no such curve, though single readings can be large or run the other way.
Outcome codes: Y (active), N (inactive)

[
  {
    "Compound": "CC(C)C1CCC(Cc2ccc(Cl)cc2)C1(O)Cn1cncn1 (configuration not stated)",
    "Label": "N"
  },
  {
    "Compound": "COP(=O)(CCC(=O)NCO)OC",
    "Label": "N"
  },
  {
    "Compound": "Cc1cc(Cl)ccc1O[C@H](C)C(=O)O",
    "Label": "N"
  },
  {
    "Compound": "Nc1ccc(Cc2ccc(N)c(Cl)c2)cc1Cl",
    "Label": "Y"
  },
  {
    "Compound": "CC(=O)OC1(c2ccccc2)CCN(CCc2ccccc2)CC1",
    "Label": "N"
  },
  {
    "Compound": "C[C@@H]1CC[C@@]2(OC1)O[C@H]1[C@@H](O)[C@H]3[C@@H]4CC[C@H]5C[C@@H](O[C@@H]6O[C@H](CO)[C@H](O[C@@H]7O[C@H](CO)[C@@H](O)[C@H](O[C@@H]8OC[C@@H](O)[C@H](O)[C@H]8O)[C@H]7O[C@@H]7O[C@H](CO)[C@@H](O)[C@H](O[C@@H]8O[C@H](CO)[C@@H](O)[C@H](O)[C@H]8O)[C@H]7O)[C@H](O)[C@H]6O)[C@H](O)C[C@]5(C)[C@H]4CC[C@]3(C)[C@H]1[C@@H]2C",
    "Label": "N"
  },
  {
    "Compound": "C[C@H]1CC[C@@H]2[C@@H](C)[C@H]3[C@H](C[C@H]4[C@@H]5CC=C6CC(O[C@@H]7O[C@H](CO)[C@H](O)[C@H](O[C@@H]8O[C@H](CO)[C@@H](O)[C@H](O)[C@H]8O)[C@H]7O[C@H]7O[C@@H](C)[C@H](O)[C@@H](O)[C@H]7O)CC[C@]6(C)[C@H]5CC[C@]34C)N2C1 (some centres not stated)",
    "Label": "N"
  }
]

====

# Target desc: Progesterone receptor (Homo sapiens)
# Protocol notes: qHTS assay to identify small molecule antagonists of the progesterone receptor (PR) signaling pathway (AID 1346795)
# Run parameters: PR-UAS-bla HEK293T, beta-lactamase FRET ratio, 16 h; series mostly up to 92.4 µM
Results filed as inconclusive are left out. Activity calls are given as the source filed them. The call rests on the fitted dose curve; in most records, active means well fitted inhibition curve with a large enough effect in the signal ratio in the repeat runs (not every such curve was filed as active); inconclusive means weak or mixed curves; inactive means flat fitted curve, though single readings scatter; the % refers to the signal ratio.
Outcomes: active, inactive

[
  {
    "Compound": "CCOP(=S)(OCC)SCCS(=O)(=O)CC",
    "Label": "active"
  },
  {
    "Compound": "Clc1ccc(COC(Cn2ccnc2)c2ccc(Cl)cc2Cl)cc1 (configuration not stated)",
    "Label": "active"
  },
  {
    "Compound": "N#Cc1ccc(O)cc1",
    "Label": "inactive"
  },
  {
    "Compound": "CCOC(=O)CC(=O)CCl",
    "Label": "inactive"
  },
  {
    "Compound": "CCCCN(CCCC)C(=S)[S-].CCCCN(CCCC)C(=S)[S-].[Zn+2]",
    "Label": "active"
  },
  {
    "Compound": "CSCCCN=C=S",
    "Label": "inactive"
  },
  {
    "Compound": "BrC(Br)Br",
    "Label": "inactive"
  },
  {
    "Compound": "CCOP(=S)(OCC)OC(Cl)C(Cl)(Cl)Cl (configuration not stated)",
    "Label": "inactive"
  },
  {
    "Compound": "O=C(CCCN1CCC2(CC1)C(=O)NCN2c1ccccc1)c1ccc(F)cc1",
    "Label": "inactive"
  },
  {
    "Compound": "Nc1ccc(Cl)cc1C(=O)c1ccccc1",
    "Label": "active"
  },
  {
    "Compound": "CCOC(=O)c1ccccc1S(=O)(=O)NC(=O)Nc1nc(Cl)cc(OC)n1",
    "Label": "inactive"
  },
  {
    "Compound": "Oc1c(Br)c(Br)c(Br)c(Br)c1Br",
    "Label": "active"
  },
  {
    "Compound": "Clc1ccc(C(Cl)(Cl)Cl)c(Cl)c1",
    "Label": "inactive"
  },
  {
    "Compound": "O=C1c2ccccc2C(=O)C1C(=O)C(c1ccccc1)c1ccc(Cl)cc1 (configuration not stated)",
    "Label": "active"
  },
  {
    "Compound": "ClC1=C(Cl)[C@]2(Cl)[C@@H]3[C@@H](Cl)[C@@H](Cl)C[C@@H]3[C@@]1(Cl)C2(Cl)Cl",
    "Label": "inactive"
  },
  {
    "Compound": "O=C(Nc1ccc2[nH]ccc2c1)c1cc2cc(F)ccc2n1Cc1cccc(F)c1",
    "Label": "active"
  },
  {
    "Compound": "c1ccc2c(c1)OCC(C1=NCCN1)O2 (configuration not stated)",
    "Label": "active"
  },
  {
    "Compound": "c1ccc2c(c1)[nH]c1cnccc12",
    "Label": "active"
  },
  {
    "Compound": "CCc1cc(C)cc(CC)c1-c1c(OC(=O)C(C)(C)C)n2n(c1=O)CCOCC2",
    "Label": "inactive"
  },
  {
    "Compound": "C1CCC2CCCCC2C1 (configuration not stated)",
    "Label": "inactive"
  },
  {
    "Compound": "CC(C)CC(C)(c1ccc(O)cc1)c1ccc(O)cc1",
    "Label": "active"
  },
  {
    "Compound": "CC(C)CCCCCCCOP(=O)(Oc1ccccc1)Oc1ccccc1",
    "Label": "active"
  },
  {
    "Compound": "CC(C)C(=O)Cl",
    "Label": "inactive"
  },
  {
    "Compound": "COc1ccc(OC)c(CC(C)N)c1 (configuration not stated)",
    "Label": "inactive"
  },
  {
    "Compound": "C=CC(=O)OCCCCOC(=O)C=C",
    "Label": "inactive"
  },
  {
    "Compound": "Nc1ccc([N+](=O)[O-])cc1Cl",
    "Label": "active"
  },
  {
    "Compound": "COC[C@H](C)N(C(=O)CCl)c1c(C)csc1C",
    "Label": "inactive"
  }
]

====

# Protocol notes: qHTS RealTime-Glo MT Cell Viability Assay in HEK293 cells - 24 hour (AID 1224886); note: nearly all actives have a fitted effect of over 50% in size; note: potency is the fitted concentration of half-maximal effect
# Run parameters: RealTime-Glo luminescence; series mostly up to 76.8 µM
Records with an inconclusive call do not appear. Active and inactive are the calls of the source. The call rests on the fitted dose curve; in most records, active means well fitted cell-killing curve with a large enough effect in the repeat runs; inconclusive means weak or mixed curves, or effect the other way; inactive means flat fitted curve, though single readings scatter.
Result type: Potency

[
  {
    "Molecule": "CC1(C)CN=C(NN=C(/C=C/c2ccc(C(F)(F)F)cc2)/C=C/c2ccc(C(F)(F)F)cc2)NC1",
    "Result type": "Potency",
    "Result": "43.6 µM (active)"
  },
  {
    "Molecule": "CC(C)(C)c1ccc(CSc2cnn(C(C)(C)C)c(=O)c2Cl)cc1",
    "Result type": "Potency",
    "Result": "0.0389 µM (active)"
  },
  {
    "Molecule": "CCC(C)c1cc([N+](=O)[O-])cc([N+](=O)[O-])c1OC(=O)C=C(C)C (centres undefined)",
    "Result type": "Potency",
    "Result": "38.9 µM (active)"
  },
  {
    "Molecule": "Fc1ccc(Oc2ccnc3cc(Cl)cc(Cl)c23)cc1",
    "Result type": "Potency",
    "Result": "11 µM (active)"
  },
  {
    "Molecule": "N#CCCO",
    "Result type": "Potency",
    "Result": "inactive"
  },
  {
    "Molecule": "ClC1=C(Cl)C2(Cl)C3C(Cl)C(Cl)CC3C1(Cl)C2(Cl)Cl (centres undefined)",
    "Result type": "Potency",
    "Result": "48.8 µM (active)"
  },
  {
    "Molecule": "N#Cc1ccccc1Cl",
    "Result type": "Potency",
    "Result": "inactive"
  },
  {
    "Molecule": "CCCCN(CCCC)C(=S)[S-].CCCCN(CCCC)C(=S)[S-].[Zn+2]",
    "Result type": "Potency",
    "Result": "11 µM (active)"
  },
  {
    "Molecule": "CC(=O)O[C@H]1CC[C@@]2(C)C(=CC[C@@H]3[C@@H]2CC[C@]2(C)C(=O)CC[C@@H]32)C1",
    "Result type": "Potency",
    "Result": "54.9 µM (active)"
  },
  {
    "Molecule": "N#CNC#N",
    "Result type": "Potency",
    "Result": "inactive"
  },
  {
    "Molecule": "COc1cc(C=O)cc2c1[C@H](COC(N)=O)[C@]1(OC(C)=O)ON2C[C@H]2[C@@H]1N2C(C)=O",
    "Result type": "Potency",
    "Result": "0.245 µM (active)"
  },
  {
    "Molecule": "c1ccc2c(c1)[nH]c1cnccc12",
    "Result type": "Potency",
    "Result": "inactive"
  },
  {
    "Molecule": "CN(CCCC(O)c1cccnc1)N=O (centres undefined)",
    "Result type": "Potency",
    "Result": "inactive"
  },
  {
    "Molecule": "CCS(=O)(=O)c1cccnc1S(=O)(=O)NC(=O)Nc1nc(OC)cc(OC)n1",
    "Result type": "Potency",
    "Result": "inactive"
  },
  {
    "Molecule": "ClC1=C(Cl)[C@]2(Cl)[C@@H]3[C@@H](Cl)[C@H](Cl)C[C@@H]3[C@@]1(Cl)C2(Cl)Cl",
    "Result type": "Potency",
    "Result": "inactive"
  },
  {
    "Molecule": "COc1ccc(OC)c(CC(C)N)c1 (centres undefined)",
    "Result type": "Potency",
    "Result": "inactive"
  },
  {
    "Molecule": "CCCN(CC)CC1COC2(CCC(C(C)(C)C)CC2)O1 (centres undefined)",
    "Result type": "Potency",
    "Result": "inactive"
  },
  {
    "Molecule": "O=c1oc2ccccc2c(O)c1Cc1c(O)c2ccccc2oc1=O",
    "Result type": "Potency",
    "Result": "inactive"
  },
  {
    "Molecule": "N#Cc1c(-c2ccc(Cl)cc2)[nH]c(C(F)(F)F)c1Br",
    "Result type": "Potency",
    "Result": "1.1 µM (active)"
  },
  {
    "Molecule": "CC(=O)OC1(c2ccccc2)CCN(CCc2ccccc2)CC1",
    "Result type": "Potency",
    "Result": "28.2 µM (active)"
  },
  {
    "Molecule": "BrC(Br)Br",
    "Result type": "Potency",
    "Result": "inactive"
  },
  {
    "Molecule": "CCOP(=S)(OCC)SCCS(=O)(=O)CC",
    "Result type": "Potency",
    "Result": "inactive"
  },
  {
    "Molecule": "Cc1ccc(C(=O)Cl)cc1",
    "Result type": "Potency",
    "Result": "inactive"
  },
  {
    "Molecule": "O=C1c2ccccc2C(=O)C1C(=O)C(c1ccccc1)c1ccc(Cl)cc1 (centres undefined)",
    "Result type": "Potency",
    "Result": "inactive"
  }
]
